Hey, just so you know, these numbers are from patent US7053219B2.

# reported IC50; entries follow
# TESTED ON: rat metabotropic glutamic acid receptor 7a (Rattus norvegicus)
# Sequence (P35400 35-915): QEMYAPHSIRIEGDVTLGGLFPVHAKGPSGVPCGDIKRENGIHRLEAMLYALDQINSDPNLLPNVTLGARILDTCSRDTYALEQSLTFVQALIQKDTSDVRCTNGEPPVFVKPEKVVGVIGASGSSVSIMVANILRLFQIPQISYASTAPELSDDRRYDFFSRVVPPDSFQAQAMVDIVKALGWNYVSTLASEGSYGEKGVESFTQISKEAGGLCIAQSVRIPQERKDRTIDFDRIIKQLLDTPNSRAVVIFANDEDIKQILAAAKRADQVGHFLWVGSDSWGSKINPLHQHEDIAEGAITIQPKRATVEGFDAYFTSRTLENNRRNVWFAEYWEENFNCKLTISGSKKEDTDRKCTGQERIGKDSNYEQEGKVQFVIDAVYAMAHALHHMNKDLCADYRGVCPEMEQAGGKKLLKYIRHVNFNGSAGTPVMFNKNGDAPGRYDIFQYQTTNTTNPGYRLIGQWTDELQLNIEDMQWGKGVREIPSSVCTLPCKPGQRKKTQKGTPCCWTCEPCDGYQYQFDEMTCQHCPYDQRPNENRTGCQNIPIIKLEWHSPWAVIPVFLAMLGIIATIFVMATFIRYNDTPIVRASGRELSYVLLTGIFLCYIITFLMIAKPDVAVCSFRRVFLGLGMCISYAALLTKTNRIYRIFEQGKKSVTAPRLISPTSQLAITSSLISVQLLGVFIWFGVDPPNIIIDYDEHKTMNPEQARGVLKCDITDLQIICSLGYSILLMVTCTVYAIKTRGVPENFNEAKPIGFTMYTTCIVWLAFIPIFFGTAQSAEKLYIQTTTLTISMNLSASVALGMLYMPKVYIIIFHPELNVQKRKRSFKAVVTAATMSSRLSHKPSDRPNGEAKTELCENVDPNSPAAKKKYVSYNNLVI
# ASSAY NAME: Metabotropic glutamic acid receptor-antagonistic effect (Test Method 1, [Ca2+]i by FLIPR)
# TEST SETTINGS: CHO cells stably expressing rat metabotropic glutamic acid receptor 7a and Gα15, agonist 0.5 mM L-AP4, test compound given 5 minutes before agonist, [Ca2+]i with Fluo-3AM
Field: numeric (nM). Do not append units.

query: Requested read-out: IC50. Entry: Cn1c(-c2cccnc2)cc2onc(-c3ccncc3)c2c1=O
result: 10.4

Consider the additional molecule presented here.
query: Data request, read-out IC50, for COc1ccccc1-c1noc2cc(-c3ccccc3)n(C)c(=O)c12
result: 7.65
